Ratio (-BP/+BP), DF-5000006 for assorted binders
Molecular target: T1, IL-18 binding protein (IL-18BP) (UniProt O95998 31-194)
T1 sequence (looked up): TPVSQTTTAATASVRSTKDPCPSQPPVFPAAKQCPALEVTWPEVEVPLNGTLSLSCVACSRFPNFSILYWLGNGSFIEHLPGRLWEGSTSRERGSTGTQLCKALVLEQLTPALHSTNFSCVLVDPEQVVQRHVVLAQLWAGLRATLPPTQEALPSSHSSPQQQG
Test: cell-based or functional assay
Give only the figure.

Worked examples follow.
Form field Ratio (-BP/+BP), DF-5000006, entry IL-18 variant G3Q, E6G, D54N, S55H, T63V, N91M, R104T (ligand) YFQKLGSKLSVIRNLNDQVLFIDQGNRPLFEDMTDSDMRDNAPRTIFIISMYKNHQPRGMAVVISVKSEKISTLSSENKIISFKEMNPPDMIKDTKSDIIFFQTSVPGHDNKMQFESSSYEGYFLASEKERDLFKLILKKEDELGDRSIMFTVQNED : 1.32

GET /value?item= IL-18 variant G3E, E6H, R27S, D54A, S55T, T63S, N91F, R104S (ligand) YFEKLHSKLSVIRNLNDQVLFIDQGNSPLFEDMTDSDMRDNAPRTIFIISMYKATQPRGMAVSISVKSEKISTLSSENKIISFKEMNPPDFIKDTKSDIIFFQSSVPGHDNKMQFESSSYEGYFLASEKERDLFKLILKKEDELGDRSIMFTVQNED &field=Ratio (-BP/+BP), DF-5000006 returns 1.65

Lab note: next binder to report on.
Please fill in: Ratio (-BP/+BP), DF-5000006 reported for IL-18 variant N91S, R104H (ligand) YFGKLESKLSVIRNLNDQVLFIDQGNRPLFEDMTDSDMRDNAPRTIFIISMYKDSQPRGMAVTISVKSEKISTLSSENKIISFKEMNPPDSIKDTKSDIIFFQHSVPGHDNKMQFESSSYEGYFLASEKERDLFKLILKKEDELGDRSIMFTVQNED = 7.35
